Target system: GABA A receptor alpha-3/beta-2/gamma-2 (Homo sapiens, UniProt P18507+P34903+P47870)
Sequence (P47870 whole entry): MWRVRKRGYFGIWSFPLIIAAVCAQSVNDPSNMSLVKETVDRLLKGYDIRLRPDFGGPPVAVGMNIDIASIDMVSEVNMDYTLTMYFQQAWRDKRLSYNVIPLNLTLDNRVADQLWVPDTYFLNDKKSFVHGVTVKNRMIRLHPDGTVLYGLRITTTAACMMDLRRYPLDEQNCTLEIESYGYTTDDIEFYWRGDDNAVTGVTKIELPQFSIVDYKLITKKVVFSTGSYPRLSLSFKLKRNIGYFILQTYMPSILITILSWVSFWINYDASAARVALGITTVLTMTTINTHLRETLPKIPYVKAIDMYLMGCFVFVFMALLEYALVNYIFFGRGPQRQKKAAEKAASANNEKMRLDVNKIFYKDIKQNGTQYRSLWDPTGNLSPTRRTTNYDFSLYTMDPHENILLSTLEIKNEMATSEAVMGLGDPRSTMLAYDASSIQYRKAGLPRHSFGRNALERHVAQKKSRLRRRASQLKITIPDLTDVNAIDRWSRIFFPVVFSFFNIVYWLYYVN
Sequence (P18507 whole entry): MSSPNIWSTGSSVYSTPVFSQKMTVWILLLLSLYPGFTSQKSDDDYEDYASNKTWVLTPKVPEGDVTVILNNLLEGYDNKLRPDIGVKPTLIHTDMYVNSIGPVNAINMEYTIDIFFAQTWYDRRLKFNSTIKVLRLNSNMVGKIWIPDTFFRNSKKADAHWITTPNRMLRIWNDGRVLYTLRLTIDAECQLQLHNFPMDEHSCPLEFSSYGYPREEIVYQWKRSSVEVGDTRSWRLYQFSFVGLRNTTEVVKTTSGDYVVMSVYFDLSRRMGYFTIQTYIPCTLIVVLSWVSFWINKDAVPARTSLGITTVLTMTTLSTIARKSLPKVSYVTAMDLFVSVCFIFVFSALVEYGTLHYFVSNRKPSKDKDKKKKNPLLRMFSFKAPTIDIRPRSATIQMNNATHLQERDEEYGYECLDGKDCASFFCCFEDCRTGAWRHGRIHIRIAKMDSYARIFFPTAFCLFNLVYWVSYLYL
Sequence (P34903 whole entry): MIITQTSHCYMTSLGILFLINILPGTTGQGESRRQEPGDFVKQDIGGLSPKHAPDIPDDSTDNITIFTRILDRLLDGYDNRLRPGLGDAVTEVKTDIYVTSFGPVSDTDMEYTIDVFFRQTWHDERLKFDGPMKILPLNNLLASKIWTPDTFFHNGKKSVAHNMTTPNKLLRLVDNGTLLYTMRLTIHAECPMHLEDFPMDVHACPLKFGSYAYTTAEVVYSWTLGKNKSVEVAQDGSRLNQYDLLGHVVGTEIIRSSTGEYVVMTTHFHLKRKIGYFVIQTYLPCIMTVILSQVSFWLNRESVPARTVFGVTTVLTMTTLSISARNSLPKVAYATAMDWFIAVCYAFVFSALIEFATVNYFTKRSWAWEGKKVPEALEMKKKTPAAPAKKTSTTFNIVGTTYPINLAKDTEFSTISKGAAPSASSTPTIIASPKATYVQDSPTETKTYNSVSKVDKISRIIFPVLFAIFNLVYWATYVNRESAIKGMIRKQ
Assay overview: Displacement of [3H]flunitrazepam from human recombinant alpha3beta2gamma2 GABAA receptor expressed in HEK cell membrane by competitive radioligand binding assay
Parameter: pKi
Worth noting: pKi values are minus log10 of concentrations stated in mol/L.

Worked cases, pKi given:
>>> recorded_result("CN1C(=O)CN=C(c2ccccc2)c2ccccc21")
6.50
>>> recorded_result("C[C@@H]1N=C(c2ccccc2)c2cc(Br)ccc2NC1=O")
7.72
>>> recorded_result("C#Cc1ccc2c(c1)C(c1ccccc1Cl)=NCc1nnc(C)n1-2")
8.72

Kindly state the measured pKi obtained for C#Cc1ccc2c(c1)C(c1ccccc1F)=NCC(=O)N2C with GABA A receptor alpha-3/beta-2/gamma-2 (Homo sapiens, UniProt P18507+P34903+P47870).
8.47

Kindly state the measured pKi obtained for O=C1CN=C(c2ccccc2)c2ccccc2N1 with GABA A receptor alpha-3/beta-2/gamma-2 (Homo sapiens, UniProt P18507+P34903+P47870).
6.46

Kindly state the measured pKi obtained for C#Cc1ccc2c(c1)C(c1ccccc1)=NCC(=O)N2C with GABA A receptor alpha-3/beta-2/gamma-2 (Homo sapiens, UniProt P18507+P34903+P47870).
7.32

Kindly state the measured pKi obtained for Cc1nnc2n1-c1ccc(Br)cc1C(c1ccccn1)=NC2 with GABA A receptor alpha-3/beta-2/gamma-2 (Homo sapiens, UniProt P18507+P34903+P47870).
8.29

Kindly state the measured pKi obtained for Cc1nnc2n1-c1ccc(Cl)cc1C(c1ccccc1)=NC2 with GABA A receptor alpha-3/beta-2/gamma-2 (Homo sapiens, UniProt P18507+P34903+P47870).
8.85

Data credit: ChEMBL document CHEMBL5143601
